The following molecules are listed with their measured inclusion score values.
assay: reducers of polyQ inclusions in PC12 cells, cell-based, NGF-treated PC12, GFPQ80 (AID 1614); conditions: PC12 NGF-treated GFP-polyQ80 inclusion reduction;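 further: lower means fewer inclusions and 0 means no inclusions at all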
Output: the number by itself.

// below: answered molecules
O=C(O)CN(CC(=O)O)Cc1cc2c(-c3ccccc3C(=O)O)c3cc(CN(CC(=O)O)CC(=O)O)c(=O)cc-3oc2cc1O = 0
Cn1nnnc1SCC1=C(C(=O)O)N2C(=O)C(NC(=O)C(OC=O)c3ccccc3)C2SC1 (stereo unspecified) = 2
CCOC(=O)C(Cc1ccc(O)cc1)NC(C)=O (stereo unspecified) = 2
CC[C@H]1OC(=O)[C@H](C)[C@@H](O[C@H]2C[C@@](C)(OC)[C@@H](O)[C@H](C)O2)[C@H](C)[C@@H](O[C@@H]2O[C@H](C)C[C@H](N(C)C)[C@H]2O)[C@](C)(O)C[C@@H](C)/C(=N\OCOCCOC)[C@H](C)[C@@H](O)[C@]1(C)O = 2
Cc1ccc(O)cc1 = 2

// moving on: another record for inclusion score
Field inclusion score (entry NCCSSCCN ) reads 2

---

assay: human astrocyte viability loss, single and combined drugs, cytotoxicity control for chromothriptic childhood tumor combination screen, cell-based, BGB or cisplatin IC20 combos (AID 1671460); conditions: Human astrocytes, drug combinations, measured here: combo with BGB IC20, at 0.5 µM, stronger effect = higher value;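 further: cells exposed to compounds for 96 hours before viability readout; 0% = vehicle and 100% = killing control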
Recorded inhibition, one value per entry.

Record excerpt, results attached:
N=c1ccn2c(n1)O[C@H]1[C@H](O)[C@@H](CO)O[C@H]12 = 22.9%
CN(N=O)C(=O)NC1C(O)OC(CO)C(O)C1O (configuration not stated) = -2.11%
O=c1[nH]c(=O)n([C@H]2C[C@H](O)[C@@H](CO)O2)cc1C(F)(F)F = 5.49%
Cc1ccc2nc(N)[nH]c(=O)c2c1Sc1ccncc1 = -8.77%

Noted for CNC1CCCN(c2c(F)cc3c(=O)c(C(=O)O)cn(C4CC4)c3c2OC)C1 (configuration not stated) : its inhibition reads -0.992%

Looking up Nc1ncn([C@H]2C[C@H](O)[C@@H](CO)O2)c(=O)n1 , I see its inhibition listed as 27.2%

Lab note: CCn1nc(C(=O)O)c(=O)c2cc3c(cc21)OCO3 gave inhibition of 8.46%

Sample Nc1ccc2cc3ccc(N)cc3nc2c1 ; inhibition observed: 0.031%

Please fill in: inhibition reported for O=c1cc[nH]c(=O)[nH]1 = 4.39%

Value of measured inhibition for the entry CN1CCN(c2c(F)cc3c(=O)c(C(=O)O)cn(CCF)c3c2F)CC1 : 2.15%

inhibition measured on CN1CCN(c2c(F)cc3c(=O)c(C(=O)O)cn4c3c2OCN4C)CC1 = 4.16%

# compound N=C(N=C(N)N)N1CCOCC1 ; its inhibition = 7.42%

---

test: LFS_MB_P medulloblastoma growth inhibition, cell-based, chromothripsis tumors, cisplatin or BGB combos (AID 1671449); details: LFS_MB_P medulloblastoma cells, measured here: combination with BGB IC40, at 0.005 µM;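 further: cells exposed for 96 hours; 0% = vehicle DMSO and 100% = killing by high DMSO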
reported property: inhibition (%)
The response must be a number in % with no trailing unit.

Reference set (10 entries):
O=C(CCCCCCC(=O)Nc1ccccc1)NO = -25.1
C[C@@H](CN1CC(=O)NC(=O)C1)N1CC(=O)NC(=O)C1 = 4.81
CN(N=O)C(=O)NC1C(O)OC(CO)C(O)C1O (configuration not stated) = -23
O=c1cc[nH]c(=O)[nH]1 = -38.5
CN1CCN(c2c(F)cc3c(=O)c(C(=O)O)cn4c3c2OCN4C)CC1 = -17.4
CN1CCN(c2c(F)cc3c(=O)c(C(=O)O)cn(CCF)c3c2F)CC1 = 16.6
N=c1ccn2c(n1)O[C@H]1[C@H](O)[C@@H](CO)O[C@H]12 = -23.7
CNC1CCCN(c2c(F)cc3c(=O)c(C(=O)O)cn(C4CC4)c3c2OC)C1 (configuration not stated) = -37.4
Cc1ccc2nc(N)[nH]c(=O)c2c1Sc1ccncc1 = -17.9
COc1c2ccoc2cc2oc(=O)ccc12 = -30

For record CC1(C(=O)O)CCC2(C)CCC3(C)C(=CC(=O)C4C5(C)CCC(OC(=O)CCC(=O)O)C(C)(C)C5CCC43C)C2C1 (configuration not stated) the listed inhibition is -24.5

Please fill in: inhibition reported for Nc1ncn([C@H]2C[C@H](O)[C@@H](CO)O2)c(=O)n1 = -3.75
